molecular target: IRAK4 (Homo sapiens (Human), UniProt Q9NWZ3); assay: Western blot assay for assessing degradation of IRAK4 in MCF7 cells; type: cell-based; details: Table 5, IRAK4 degradation, 24 hour incubation, read-out: IRAK4 DC50
Sequence (Q9NWZ3 whole entry): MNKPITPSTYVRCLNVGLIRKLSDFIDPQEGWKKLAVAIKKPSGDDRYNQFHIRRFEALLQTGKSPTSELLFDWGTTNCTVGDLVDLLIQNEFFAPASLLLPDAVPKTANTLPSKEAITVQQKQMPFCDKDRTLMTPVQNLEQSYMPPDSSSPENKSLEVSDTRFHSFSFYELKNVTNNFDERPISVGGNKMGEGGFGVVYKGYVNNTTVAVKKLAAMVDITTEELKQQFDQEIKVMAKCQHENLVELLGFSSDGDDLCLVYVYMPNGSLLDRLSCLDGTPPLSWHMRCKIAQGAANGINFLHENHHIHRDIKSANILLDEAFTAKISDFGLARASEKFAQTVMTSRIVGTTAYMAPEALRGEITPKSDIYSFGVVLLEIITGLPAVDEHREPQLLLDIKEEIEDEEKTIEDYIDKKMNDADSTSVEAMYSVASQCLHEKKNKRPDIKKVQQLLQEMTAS
measured-endpoint: DC50

Qu. I have this compound here, COc1cc2nn(C3CCN(CCOCCOCCOc4ccc5c(c4)C(=O)N(C4CCC(=O)NC4=O)C5=O)CC3)cc2cc1NC(=O)c1cccc(C(F)(F)F)n1 (stereo not shown) [compound 59] , and I need its recorded DC50.
Ans. 300 to 1000 nM

Qu. Given N#Cc1ccc2ncnc(N[C@H]3CC[C@H](N4CCN(S(=O)(=O)CCOCCOc5ccc6c(c5)C(=O)N(C5CCC(=O)NC5=O)C6=O)CC4)CC3)c2c1 (stereo partly shown) [compound 34] , state its recorded DC50.
Ans. ≥ 1000 nM

Qu. Return reported DC50; argument: O=C1CCC(N2C(=O)c3ccc(OCCOCCOC[C@H]4CC[C@@H](n5c(NC(=O)c6cccc(C(F)(F)F)c6)nc6cc(CN7CCCCC7)ccc65)CC4)cc3C2=O)C(=O)N1 (stereo partly shown) [compound 44]
Ans. ≥ 1000 nM

Qu. Entry O=C1CCC(N2C(=O)c3ccc(OCCOCCOCCN4CCN(Cc5ccc6c(c5)nc(NC(=O)c5cccc(C(F)(F)F)c5)n6-c5ccccc5)CC4)cc3C2=O)C(=O)N1 (stereo not shown) [compound 53] has what DC50?
Ans. ≥ 1000 nM

Qu. Requested read-out: DC50. Entry: Cc1ncsc1-c1ccc(CNC(=O)[C@@H]2C[C@@H](O)CN2C(=O)[C@@H](NC(=O)COCCOCCOCCOCCN2CCN(Cc3ccc4c(c3)nc(NC(=O)c3cccc(C(F)(F)F)c3)n4C3CCC(CO)CC3)CC2)C(C)(C)C)cc1 (mixture of isomers) [compound 14]
Ans. ≥ 1000 nM

Qu. Value lookup for DC50; key = O=C1CCC(N2C(=O)c3ccc(OCCOCCOCCOCCN4CCN(Cc5ccc6c(c5)nc(NC(=O)c5cccc(C(F)(F)F)c5)n6[C@H]5CC[C@@H](CO)CC5)CC4)cc3C2=O)C(=O)N1 (stereo partly shown) [compound 4]
Ans. < 30 nM

Qu. Given the compound COc1cc2nn(C3CCN(CCOCCOc4ccc5c(c4)C(=O)N(C4CCC(=O)NC4=O)C5=O)CC3)cc2cc1NC(=O)c1cccc(C(F)(F)F)n1 (stereo not shown) [compound 58] , what is its reported DC50?
Ans. < 30 nM

Qu. // returns reported DC50 for input O=C1CCC(N2C(=O)c3ccc(OCCN4CCN(Cc5ccc6c(c5)nc(NC(=O)c5cccc(C(F)(F)F)c5)n6-c5ccccc5)CC4)cc3C2=O)C(=O)N1 (stereo not shown) [compound 55]
Ans. ≥ 1000 nM

Qu. Consider the compound COc1cc2nn(C3CCN(CC4CCN(CCOc5ccc6c(c5)C(=O)N(C5CCC(=O)NC5=O)C6=O)CC4)CC3)cc2cc1NC(=O)c1cccc(C(F)(F)F)n1 (stereo not shown) [compound 63] and give its measured DC50.
Ans. 30 to 100 nM

Qu. Fill in: DC50 of Cc1ncsc1-c1ccc(CNC(=O)[C@@H]2C[C@@H](O)CN2C(=O)[C@@H](NC(=O)COCCOCCOCCN2CCN(Cc3ccc4c(c3)nc(NC(=O)c3cccc(C(F)(F)F)c3)n4C3CCC(CO)CC3)CC2)C(C)(C)C)cc1 (mixture of isomers) [compound 13] is ___
Ans. ≥ 1000 nM

Qu. Bench note: what DC50 did COc1cc2nn(C3CCN(CCOCCOc4ccc5c(c4)CN(C4CCC(=O)NC4=O)C5=O)CC3)cc2cc1NC(=O)c1cccc(C(F)(F)F)n1 (stereo not shown) [compound 60] show?
Ans. < 30 nM

Qu. // returns reported DC50 for input N#Cc1ccc2ncnc(N[C@H]3CC[C@H](N4CCN(CCOCCOCCOCCOCCOc5ccc6c(c5)C(=O)N(C5CCC(=O)NC5=O)C6=O)CC4)CC3)c2c1 (stereo partly shown) [compound 33]
Ans. ≥ 1000 nM

Qu. Return reported DC50; argument: O=C1CCC(N2C(=O)c3ccc(OCCOCCOCCOCCOCCN4CCN(Cc5ccc6c(c5)nc(NC(=O)c5cccc(C(F)(F)F)c5)n6[C@H]5CC[C@@H](CO)CC5)CC4)cc3C2=O)C(=O)N1 (stereo partly shown) [compound 5]
Ans. 30 to 100 nM

Qu. Quick check: DC50 of N#Cc1ccc2ncnc(N[C@H]3CC[C@H](N4CCN(CCOCCOCCOCCOc5ccc6c(c5)C(=O)N(C5CCC(=O)NC5=O)C6=O)CC4)CC3)c2c1 (stereo partly shown) [compound 32] ?
Ans. ≥ 1000 nM

Qu. # lookup: DC50 of N#Cc1ccc2ncnc(N[C@H]3CC[C@H](N4CCN(S(=O)(=O)CCOCCOCCOCCOCCOc5ccc6c(c5)C(=O)N(C5CCC(=O)NC5=O)C6=O)CC4)CC3)c2c1 (stereo partly shown) [compound 40]
Ans. ≥ 1000 nM

Qu. Quick one: DC50 for O=C1CCC(N2C(=O)c3ccc(OCCOCCOC[C@H]4CC[C@@H](n5c(NC(=O)c6cccc(C(F)(F)F)c6)nc6cc(F)ccc65)CC4)cc3C2=O)C(=O)N1 (stereo partly shown) [compound 46] ?
Ans. ≥ 1000 nM
